assay explanation: NCI Yeast Anticancer Drug Screen. Data for the rad52 strain (AID 147);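 further: 0% = growth of vehicle-treated control cultures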
experimental setup: S. cerevisiae rad52 mutant growth inhibition; at 33.0 µM
The panel holds about 79,000 compounds, 15% with a hit somewhere; the sample as a whole holds those more often. Calls of active or inactive are those of the source. No stated cut-off is given here; in the data, active means growth inhibition above about 70%; inactive means the rest.
I would appreciate it if you answered using one of these outcomes: true (1) for active, false (0) for inactive

>>> print(df.to_string())
                                   compound  classification
0  O=C1NC(c2c(Cl)cccc2Cl)Nc2ccccc21 (stereo not given)        true (1)

**Query** Assay result, entry COc1ccc(N2CN(C)CSC2=S)cc1 — outcome?
**Result** false (0)

**Query** Next compound up: Cn1ncc2cc3c(Nc4ccc(Cl)cc4)cccc3nc21
**Result** false (0)

**Query** How about O=C(/C=C/c1cccc2ccccc12)c1ccc(Cl)cc1 ?
**Result** false (0)

**Query** C=C1N(C)c2ccc(Cl)cc2C1(C)C ?
**Result** false (0)

**Query** Now this one: CC(=O)Oc1ccc(N2C(=O)C3c4[nH]c5ccccc5c4C4CCC(C(C)(C)C)CC4C3C2=O)cc1 (stereo not given)
**Result** true (1)

**Query** Here is the next compound: CC(C)(C)c1ccc(O)c(C(c2ccc([N+](=O)[O-])cc2)c2cc(C(C)(C)C)ccc2O)c1
**Result** true (1)

**Query** Follow-up item: C=Cc1cnc([N+](=O)[O-])n1C
**Result** true (1)

**Query** Let us now turn to Clc1c(Cl)c(Cl)c2c(nnn2C2CCCO2)c1Cl (stereo not given)
**Result** false (0)

**Query** Then O=Nn1c2ccccc2c2ccccc21 ?
**Result** false (0)

###

assay explanation: NCI Yeast Anticancer Drug Screen. Data for the rad18 strain (AID 177)
experimental setup: S. cerevisiae rad18 mutant growth inhibition; at 33.0 µM
Compounds without any hit were thinned out: in the full panel of roughly 79,000, 15% have a hit. Activity calls are given as the source filed them. Rule as the data show it: active = growth inhibition above about 70%; inactive = the rest.
Your answer must be one of the following: active, inactive

Worked set:
>>> print(df.to_string())
                                   molecule  classification
0  CCC(c1ccc(O)cc1)C(CC)c1ccc(OCCN)cc1 (stereo not drawn)        inactive
1     CCOC(=O)[C@]1(Br)CC[C@@]1(Br)C(=O)OCC          active
2  O=C(/C=C\c1ccc([N+](=O)[O-])o1)Nc1ccc(Cl)cc1          active
3                C=C1N(C)c2ccc(Cl)cc2C1(C)C        inactive
4                CN(C)c1ccc(N=Nc2ccccn2)cc1          active
5  CC(=O)[O-].O=C([CH-]C(=O)c1ccccc1)c1ccccc1.O=C([CH-]C(=O)c1ccccc1)c1ccccc1.[Sm+3]          active
6  S=C(S)NCC1CCC(CNC(=S)S)CC1 (stereo not drawn)        inactive

Read the next record carefully.
**Query** Test call for this molecule, please: CC1C(C#N)(C#N)C(C#N)=C(N)C1(Cl)[N+](=O)[O-] (stereo not drawn)
**Result** inactive

###

assay explanation: NCI Yeast Anticancer Drug Screen. Data for the bub3 strain (AID 167)
experimental setup: S. cerevisiae bub3 mutant strain, at 1.2 µM, hits give high values
About 79,000 compounds went through this panel and 15% of them were active in at least one assay; those are over-represented in the sample as a whole.
Listed here: items and their measured growth inhibition.
Unit % implied. Number only.

Take a look at these entries with their results.
                                   molecule      endpoint_name  value_measured
0  CCOC(=O)C1=C(C)NC(C)=C(C(=O)OCC)C1c1ccccc1Cl  growth inhibition              35
1       COc1cc(CNc2ccc(C(C)C)cc2)cc(OC)c1OC  growth inhibition             -13
2  Cc1ccccc1NC(=O)Cc1csc(N/N=C2\NC(=O)/C(=C/c3cccc([N+](=O)[O-])c3)S2)n1  growth inhibition              -1

**Query** // growth inhibition lookup, key: Nc1nc(N)c2c(n1)CCC(S(=O)(=O)c1ccc3ccccc3c1)C2 (stereo unspecified)
**Result** -41

**Query** Check O=C(CCc1ccccc1)ON1C(=S)C(c2ccccc2)(c2ccccc2)N=C1Sc1ccccc1 too.
**Result** 6

**Query** Can you check c1ccc(N2N=C3N(c4ccccc4)C2N3c2ccccc2)cc1 next?
**Result** -6

Hello, the source for this data is PubChem BioAssay (NCI), in case you need it.
